Kindly state Osmolality for each of the entries shown.
Test: Osmotic pressure and osmolality of solutions of identical iodine concentration (300 mg. Iodine/ml.)
Format: physicochemical
Details: at 37° C.
Numbers only, in mOsm/kg . H2 O.

Below are worked cases with known answers.
# MOLECULE, NUMERIC_RESULT
measured = [
    ("CC(=O)Nc1c(I)c(NC(C)=O)c(I)c(C(=O)O)c1I [Meglumine Amidotrizoate]", 1520),
    ("CNC(=O)c1c(I)c(NC(=O)CCCCC(=O)Nc2c(I)c(C(=O)O)c(I)c(C(=O)NC)c2I)c(I)c(C(=O)O)c1I [Meglumine Iocarmate]", 1260),
    ("CN(CC(O)CO)C(=O)c1c(I)c(C(=O)N(C)CC(O)CO)c(I)c(N(C)C(=O)CC(=O)N(C)c2c(I)c(C(=O)N(C)CC(O)CO)c(I)c(C(=O)N(C)CC(O)CO)c2I)c1I (stereo not shown) [Example 9]", 197),
    ("CN(CC(O)CO)C(=O)c1c(I)c(NC(=O)COCCOCC(=O)Nc2c(I)c(C(=O)N(C)CC(O)CO)c(I)c(C(=O)N(C)CC(O)CO)c2I)c(I)c(C(=O)N(C)CC(O)CO)c1I (stereo not shown) [Example 12]", 216),
    ("CC(=O)Nc1c(I)c(C(=O)N[C@H]2C(O)O[C@H](CO)[C@@H](O)[C@@H]2O)c(I)c(N(C)C(C)=O)c1I (stereo partly shown) [Metrizamide]", 485),
]

For every item below, please supply its Osmolality.
1. CN(CC(O)CO)C(=O)c1c(I)c(NC(=O)C(=O)Nc2c(I)c(C(=O)N(C)CC(O)CO)c(I)c(C(=O)N(C)CC(O)CO)c2I)c(I)c(C(=O)N(C)CC(O)CO)c1I (stereo not shown) [Example 1]
2. CNC(=O)c1c(I)c(NC(C)=O)c(I)c(C(=O)O)c1I [Meglumine Iothalamate]

1: 175; 2: 1650

* * *

Can you tell me fraction unbound for the items I'm about to list?
Test: Protein binding, human plasma (ultrafiltration method)
Type: in vitro ADME
Details: human, plasma; n = 6; 1.2 mg. Iodine/ml.; ultrafiltration; read-out: Protein Binding Human Plasma (converted)

# annotated cases, reported fraction unbound shown
# MOLECULE, fraction unbound
records = [
    ("CC(=O)Nc1c(I)c(NC(C)=O)c(I)c(C(=O)O)c1I [Meglumine Amidotrizoate]", 0.968),
    ("CNC(=O)c1c(I)c(NC(=O)CCCCC(=O)Nc2c(I)c(C(=O)O)c(I)c(C(=O)NC)c2I)c(I)c(C(=O)O)c1I [Meglumine Iocarmate]", 0.908),
]

Give its fraction unbound value. Item: CN(CC(O)CO)C(=O)c1c(I)c(NC(=O)C(=O)Nc2c(I)c(C(=O)N(C)CC(O)CO)c(I)c(C(=O)N(C)CC(O)CO)c2I)c(I)c(C(=O)N(C)CC(O)CO)c1I (stereo not drawn) [Example 1] 0.986

* * *

Tested on: mice
Experiment: Compatibility after intravenous injection in mice
Type: in vivo
QUANTITY: Compatibility After i.v. Injection in Mice, LD50 (g. Iodine/kg.)
One number for each entry, in g. Iodine/kg..

Example cases with answers are listed next.
# COMPOUND, RESULT_UNITS, NUMERIC_RESULT
records = [
    ("CNC(=O)c1c(I)c(NC(C)=O)c(I)c(C(=O)O)c1I [Meglumine Iothalamate]", "g. Iodine/kg.", 6.5),
    ("CN(CC(O)CO)C(=O)c1c(I)c(C(=O)N(C)CC(O)CO)c(I)c(N(C)C(=O)COCC(=O)N(C)c2c(I)c(C(=O)N(C)CC(O)CO)c(I)c(C(=O)N(C)CC(O)CO)c2I)c1I (stereo not shown)", "g. Iodine/kg.", 10),
    ("CN(CC(O)CO)C(=O)c1c(I)c(NC(=O)COCCOCC(=O)Nc2c(I)c(C(=O)N(C)CC(O)CO)c(I)c(C(=O)N(C)CC(O)CO)c2I)c(I)c(C(=O)N(C)CC(O)CO)c1I (stereo not shown)", "g. Iodine/kg.", 22),
]

Give one value of Compatibility After i.v. Injection in Mice, LD50 per listed compound.
1. CC(=O)Nc1c(I)c(C(=O)N[C@H]2C(O)O[C@H](CO)[C@@H](O)[C@@H]2O)c(I)c(N(C)C(C)=O)c1I (stereo partly shown) [Metrizamide]
2. CNC(=O)c1c(I)c(NC(=O)CCCCC(=O)Nc2c(I)c(C(=O)O)c(I)c(C(=O)NC)c2I)c(I)c(C(=O)O)c1I [Meglumine Iocarmate]
3. CN(CC(O)CO)C(=O)c1c(I)c(NC(=O)C(=O)Nc2c(I)c(C(=O)N(C)CC(O)CO)c(I)c(C(=O)N(C)CC(O)CO)c2I)c(I)c(C(=O)N(C)CC(O)CO)c1I (stereo not shown)
4. CC(=O)Nc1c(I)c(NC(C)=O)c(I)c(C(=O)O)c1I [Meglumine Amidotrizoate]

[14, 6.5, 20, 6.5]
